Target: 3-oxo-5-alpha-steroid 4-dehydrogenase 1 (Homo sapiens)
Sequence (P18405 whole entry): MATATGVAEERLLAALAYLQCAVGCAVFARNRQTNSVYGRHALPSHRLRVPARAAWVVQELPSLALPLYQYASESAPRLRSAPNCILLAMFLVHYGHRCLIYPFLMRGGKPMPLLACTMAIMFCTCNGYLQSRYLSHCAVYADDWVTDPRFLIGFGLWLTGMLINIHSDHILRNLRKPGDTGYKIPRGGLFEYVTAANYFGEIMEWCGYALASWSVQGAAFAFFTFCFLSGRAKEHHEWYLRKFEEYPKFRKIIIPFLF
Assay: Inhibitory concentration against human recombinant steroid 5-alpha-reductase type I in stably transfected chinese hamster ovary (CHO) 1827 cells using [3H]testosterone.
pIC50: −log10 of the molar value.
Lab note: compare pIC50 against 7. Equal or greater, write True. Smaller, write False.

| MOL | CLASS LABEL |
| --- | --- |
| CC1=C2CCc3cc(C(=O)OC(C)C)ccc3N2CCC1=O | False |
| COc1ccc2c(c1)CCC1=C(C)C(=O)CCN12 | False |
| CC1=C2CCc3cc(OCc4cc(C(F)(F)F)ccc4C(F)(F)F)ccc3N2CCC1=O | False |
| CCOC(=O)c1ccc2c(c1)CCC1=C(C)C(=O)CCN12 | False |
| CC1=C2CCc3cc(C(=O)Oc4ccccc4)ccc3N2CCC1=O | False |
| CC1=C2CCc3cc(C(=O)OC(C)(C)C)ccc3N2CCC1=O | False |

API: the following record is the query input.
Prompt: Given `CC1=C2CCc3cc(C(=O)Oc4ccc(C)cc4)ccc3N2CCC1=O` , state whether its pIC50 is at least 7.
Completion: False

The values you see were collected from ChEMBL document CHEMBL1148350.
